These measurements were taken from PubChem BioAssay AID1159580.

assayRemarks: chemical genetic growth profiling, strain panel (AID 1159580);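 also: tested at 20 µM; growth read once vehicle control cultures reached saturation at 30 °C; lower values mean less growth of the strain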
settings: S. cerevisiae deletion strains, growth OD, locus YPR025C, strain CCL1
Hit rate of the full screen: of about 5,500 compounds, about 2,000 (36%) were called active. Inconclusive results (about 18%) are left out. Rule as the data show it: active = normalized growth mostly below about 0.91 (no sharp cut-off); inconclusive = no clear call, values can overlap the other calls; inactive = mostly above about 0.92. The list shows a part of the results.
Bench note: report the call from TRUE for active, FALSE for inactive

[[record]]
compound = "Cc1ccc(C(=O)Nc2ccc3ccccc3n2)cc1"
assignedlabel = "FALSE"

[[record]]
compound = "Cc1c(C(=O)NCCNc2ccc(C(F)(F)F)cc2[N+](=O)[O-])cnn1-c1ccc(F)cc1"
assignedlabel = "FALSE"

[[record]]
compound = "O=C(Nc1ccc(Cl)cc1)c1csc([N+](=O)[O-])c1"
assignedlabel = "FALSE"

[[record]]
compound = "Fc1ccc(Nc2nc(-c3ccc(F)c(F)c3)cs2)c(F)c1"
assignedlabel = "TRUE"

[[record]]
compound = "COc1cc(OC)cc(/C(N)=N\\O)c1"
assignedlabel = "FALSE"

[[record]]
compound = "O=C(NCc1ccc(F)c(Cl)c1)Nc1csc([N+](=O)[O-])c1"
assignedlabel = "FALSE"

[[record]]
compound = "CC1CCc2c(sc3ncnc(Sc4ccccc4)c23)C1 (stereo not drawn)"
assignedlabel = "FALSE"


Could you now look at the following compound, please?
Each compound tested received a call. Report the one for CC(Oc1ccc(Cl)cc1Cl)C(=O)NNC(=S)Nc1ccccc1 (stereo not drawn) .
FALSE
